- EXPERIMENTAL TARGET: UniProt:P08684
- Sequence (P08684 whole entry): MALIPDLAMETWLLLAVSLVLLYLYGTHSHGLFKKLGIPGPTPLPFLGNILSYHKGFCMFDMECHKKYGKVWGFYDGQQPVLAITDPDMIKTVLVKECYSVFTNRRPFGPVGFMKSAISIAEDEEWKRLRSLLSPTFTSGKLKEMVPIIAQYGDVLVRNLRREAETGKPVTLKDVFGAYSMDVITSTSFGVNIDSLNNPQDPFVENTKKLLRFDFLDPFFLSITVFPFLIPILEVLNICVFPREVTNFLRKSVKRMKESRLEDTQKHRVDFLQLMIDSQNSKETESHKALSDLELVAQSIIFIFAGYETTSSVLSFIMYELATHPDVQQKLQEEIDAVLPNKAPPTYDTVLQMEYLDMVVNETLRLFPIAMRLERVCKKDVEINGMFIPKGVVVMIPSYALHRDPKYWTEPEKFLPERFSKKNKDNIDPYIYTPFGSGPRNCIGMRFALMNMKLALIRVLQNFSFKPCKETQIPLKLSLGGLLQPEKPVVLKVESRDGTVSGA
- PROCEDURE SUMMARY: Vivid CYP3A4 red fluorescent assay
pIC50 for assorted compounds
By convention, pIC50 is the negative base-10 log of a molar concentration.

{"CHEMICAL SMILES": "CC(C)=CCC[C@](C)(O)[C@H]1CC[C@]2(C)[C@@H]1[C@H](O)C[C@@H]1[C@@]3(C)CC[C@H](O)C(C)(C)[C@@H]3CC[C@]12C", "pIC50": 4.37}

Moving on to the next compound.
Lab note: measured pIC50 of CC(C)=CCC[C@](C)(O)[C@H]1CC[C@]2(C)[C@@H]1[C@H](O)C[C@@H]1[C@@]3(C)CC[C@H](O)C(C)(C)[C@@H]3[C@@H](O[C@@H]3O[C@H](CO)[C@@H](O)[C@H](O)[C@H]3O[C@@H]3O[C@@H](C)[C@H](O)[C@@H](O)[C@H]3O)C[C@]12C was 4.33
